Biological target: UniProt O15427
Experiment: Assay (d): FLIPR BCECF lactate influx in INS-1 MCT4 cells
Assay type: cell-based, rat
Design: expressed in transfected cells
Settings: INS-1 cells stably expressing human MCT4; mean of at least three repeats; read-out: MCT4 FLIPR pIC50 (INS-1) (converted)
Protocol: INS-1 MCT4 cells were generated through transfection of the parental cell background with the following DNA sequence, inserted into a pcDNA3.1 (ThermoFisher #V79020) mammalian expression vector: The resultant cell pool was continually cultured at 37° C. and 5% CO2 under antibiotic selection in RPMI (Sigma #R0883) medium containing 1% L glutamine (Sigma #G7513), 10% FBS (Sigma #F7524), 10 mM [final] […]
So basically: is IC50 under 5 nM? Then label 1. Not under? Then label 0.

Cc1nc2nc(C)c(C[C@@H]3CCN(c4cnc(-c5ccc(CN6CCCC6)cn5)cn4)C3)c(C)n2n1 | label 1
Cc1nc2nc(C)c(O[C@@H]3CCN(c4ccc(-c5ccc(CN6CCCOCC6)nn5)cc4)C3)c(C)n2n1 | label 1

Enquiry: Take the compound COCCN1CCN(Cc2ccc(-c3cnc(N4CC[C@@H](Cc5c(C)nc6nc(C)nn6c5C)C4)cn3)cc2)CC1 and say whether its IC50 is less than 5 nM.
Return: label 0

Enquiry: hey, is IC50 for Cc1nc2nc(C)c(O[C@@H]3CCN(c4ccc(-c5cnc(CN6CCOCC6)cn5)cc4)C3)c(C)n2n1 lower than 5 nM or not?
Return: label 1

Enquiry: IC50 under 5 nM? Item: Cc1nc2nc(C)c(O[C@@H]3CCN(c4ccc(-c5ccc(CN6CCOCC6)cn5)cn4)C3)c(C)n2n1
Return: label 1

Enquiry: I'd appreciate it if you could check whether Cc1nc2nc(C)c(O[C@@H]3CCN(c4ccc(-c5ccc(CN6CCCCC6)nn5)cc4)C3)c(C)n2n1 has IC50 smaller than 5 nM.
Return: label 0

Enquiry: Is 5 nM strictly greater than the compound's reported IC50? compound: Cc1nc2nc(C)c(O[C@@H]3CCN(c4ccc(-c5ccc(CN6CCOCC6)nc5)cn4)C3)c(C)n2n1
Return: label 1

###

Molecular target: MCT4 (Homo sapiens, UniProt O15427)
Sequence (O15427 whole entry): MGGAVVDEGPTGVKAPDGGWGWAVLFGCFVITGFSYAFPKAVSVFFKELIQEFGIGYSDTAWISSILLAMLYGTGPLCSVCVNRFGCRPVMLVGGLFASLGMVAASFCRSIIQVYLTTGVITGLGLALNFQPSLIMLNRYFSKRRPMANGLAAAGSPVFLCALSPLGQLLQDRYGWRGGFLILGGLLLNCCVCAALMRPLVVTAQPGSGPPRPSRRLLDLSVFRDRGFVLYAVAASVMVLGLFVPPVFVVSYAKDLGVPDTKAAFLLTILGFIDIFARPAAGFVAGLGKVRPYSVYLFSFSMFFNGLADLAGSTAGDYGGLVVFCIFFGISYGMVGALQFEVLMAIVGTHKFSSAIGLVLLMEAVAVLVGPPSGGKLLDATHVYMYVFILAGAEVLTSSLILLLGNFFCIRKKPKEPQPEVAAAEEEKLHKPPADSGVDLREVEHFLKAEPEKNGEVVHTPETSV
Assay: Assay (a): lactate efflux from SK-Br-3 cells (lactate in media, 4 h)
Format: cell-based
Design: a natively glycolytic human breast adenocarcinoma line predominantly expressing MCT4; host or cells: SK-Br-3
Settings: mean of at least three repeats (Example 32, marked *, two repeats), read-out: MCT4 lactate efflux pIC50 (SKBR3) (converted)
Recorded Metric: IC50

Cc1nc2nc(C)c(C[C@@H]3CCN(c4ccc(-c5ccc(CN6CCN(C)CC6)cc5)cn4)C3)c(C)n2n1 | 0.501 nM

Hi team, please reply with IC50 for each item in this list.
1. Cc1nc2nc(C)c(C[C@@H]3CCN(c4cnc(-c5ccc(CN6CCN(C)CC6)cn5)cn4)C3)c(C)n2n1
2. Cc1nc2nc(C)c(C[C@@H]3CCN(c4cnc(-c5ccc(CN6CCOCC6)nc5)cn4)C3)c(C)n2n1

Return:
1. 2.51 nM
2. 0.631 nM

###

Assignment: determine reported IC50 for the given compounds.
Molecular target: UniProtKB O15427
Test: Assay (a): lactate efflux from SK-Br-3 cells (lactate in media, 4 h)
Format: cell-based
Parameters: a natively glycolytic human breast adenocarcinoma line predominantly expressing MCT4; host or cells: SK-Br-3
Conditions: mean of at least three repeats (Example 32, marked *, two repeats), read-out: MCT4 lactate efflux pIC50 (SKBR3) (converted)
Give bare numbers, in nM.

Consider the worked cases shown below.
Cc1nc2nc(C)c(C[C@@H]3CCN(c4cnc(-c5ccc(CN6CCN(C)C[C@@H]6C)cc5)nc4)C3)c(C)n2n1 | 0.501
Cc1nc2nc(C)c(O[C@@H]3CCN(c4ccc(-c5ccc(CN6CCCCCC6)nn5)cc4)C3)c(C)n2n1 | 1.26
Cc1nc2nc(C)c(O[C@@H]3CCN(c4cnc(-c5ccc(CN6CCN(C)CC6)cc5)cn4)C3)c(C)n2n1 | 3.98
Cc1nc2nc(C)c(C[C@@H]3CCN(c4ccc(-c5ncc(CN6CCN(C)CC6)cn5)cc4)C3)c(C)n2n1 | 0.794

Give one value of IC50 per listed compound.
1. Cc1nc2nc(C)c(C[C@@H]3CCN(c4cnc(-c5ccc(CN6CCN(C)C[C@H]6C)cc5)cn4)C3)c(C)n2n1
2. Cc1nc2nc(C)c(C[C@@H]3CCN(c4cnc(-c5ccc(CN6CCCN(C)CC6)cc5)cn4)C3)c(C)n2n1
3. Cc1nc2nc(C)c(C[C@@H]3CCN(c4cnc(-c5ccc(CN6CCN(C)CC6)cc5)c(C)n4)C3)c(C)n2n1

Return:
[1.58, 0.794, 0.398]

###

Target: MCT4 (Homo sapiens)
Assay: cell-based
I'd appreciate it if you could supply pIC50 values for the items below.
Give bare numbers, as −log10 of the molar value.

Consider the reported pIC50 for these compounds:
COc1cc(CN2CCN(C)CC2)ccc1-c1cnc(N2CC[C@@H](Cc3c(C)nc4nc(C)nn4c3C)C2)cn1 | 7.70
Cc1nc2nc(C)c(C[C@@H]3CCN(c4ccc(-c5ccc(CN6CCN(C)CC6)cn5)cc4)C3)c(C)n2n1 | 7.70

Then there is this compound:
Value of pIC50 reported for the compound Cc1nc2nc(C)c(O[C@@H]3CCN(c4ccc(-c5ccc(CN6CCCCCC6)nn5)cc4)C3)c(C)n2n1 is 7.70

###

Would you mind telling me the reported pIC50 of each entry?
Biological target: UniProt:O15427
Test: cell-based
Give bare numbers, as −log10 of the molar value.

Example entries begin here.
Cc1nc2nc(C)c(O[C@@H]3CCN(c4cnc(-c5ccc([C@@H](C)N6CCOCC6)cc5)cn4)C3)c(C)n2n1 (single isomer, unassigned) [Example 86] | 7.90
Cc1nc2nc(C)c(C[C@@H]3CCN(c4ccc(-c5ccc(CN6CCOCC6)cc5)nn4)C3)c(C)n2n1 [Example 61] | 8.20
Cc1nc2nc(C)c(C[C@@H]3CCN(c4cnc(-c5ccc(CN6CCOCC6)cn5)c(C)n4)C3)c(C)n2n1 [Example 47] | 8.00
Cc1nc2nc(C)c(C[C@@H]3CCN(c4cnc(-c5ccc(CN6CCN(CC(=O)N(C)C)CC6)cc5)cn4)C3)c(C)n2n1 [Example 53] | 7.60
Cc1nc2nc(C)c(O[C@@H]3CCN(c4cnc(-c5ccc(CN6CCOCC6)cc5)cn4)C3)c(C)n2n1 [Example 78] | 8.20
Cc1nc2nc(C)c(C[C@@H]3CCN(c4cnc(-c5ccc(CN6CCN(CCO)CC6)cc5)nc4)C3)c(C)n2n1 [Example 16] | 7.50
Cc1nc2nc(C)c(O[C@@H]3CCN(c4ccc(-c5ccc(CN6CCOCC6)cn5)cn4)C3)c(C)n2n1 [Example 74] | 8.00
Cc1nc2nc(C)c(C[C@@H]3CCN(c4cnc(-c5ccc(CN6CCN(C)CC6)c(C)c5)cn4)C3)c(C)n2n1 [Example 56] | 7.70

Query molecule follows.
GET /value?item= Cc1nc2nc(C)c(C[C@@H]3CCN(c4ccc(-c5cnc(CN6CCN(C)CC6)cn5)cc4)C3)c(C)n2n1 [Example 21] &field=pIC50 returns 7.70

###

Target: MCT4 (Homo sapiens)
Experiment: Assay (a): lactate efflux from SK-Br-3 cells (lactate in media, 4 h)
Type: cell-based
Set-up: a natively glycolytic human breast adenocarcinoma line predominantly expressing MCT4; host or cells: SK-Br-3
Conditions: mean of at least three repeats (Example 32, marked *, two repeats), read-out: MCT4 lactate efflux pIC50 (SKBR3) (converted)
Recorded Metric: IC50 (nM)
One number for each entry, in nM.

Cc1nc2nc(C)c(C[C@@H]3CCN(c4ccc(-c5ccc(CN6CCOCC6)nn5)nc4)C3)c(C)n2n1 | 0.501
Cc1nc2nc(C)c(C[C@@H]3CCN(c4cnc(-c5ccc(CN6CCC(CO)CC6)cc5)cn4)C3)c(C)n2n1 | 0.631

Next compound, please.
# IC50 of COCCN1CCN(Cc2ccc(-c3ccc(N4CC[C@@H](Oc5c(C)nc6nc(C)nn6c5C)C4)cc3)nn2)CC1 = 3.16
